target: human dopamine transporter (Homo sapiens, UniProt Q01959); construct: expressed in transfected cells; host or cells: MDCK (dog kidney) cells, stably transfected; experiment: Binding site inhibition in MDCK cell membranes transfected with human dopamine transporter ([3H]WIN 35428)
Sequence (Q01959 whole entry): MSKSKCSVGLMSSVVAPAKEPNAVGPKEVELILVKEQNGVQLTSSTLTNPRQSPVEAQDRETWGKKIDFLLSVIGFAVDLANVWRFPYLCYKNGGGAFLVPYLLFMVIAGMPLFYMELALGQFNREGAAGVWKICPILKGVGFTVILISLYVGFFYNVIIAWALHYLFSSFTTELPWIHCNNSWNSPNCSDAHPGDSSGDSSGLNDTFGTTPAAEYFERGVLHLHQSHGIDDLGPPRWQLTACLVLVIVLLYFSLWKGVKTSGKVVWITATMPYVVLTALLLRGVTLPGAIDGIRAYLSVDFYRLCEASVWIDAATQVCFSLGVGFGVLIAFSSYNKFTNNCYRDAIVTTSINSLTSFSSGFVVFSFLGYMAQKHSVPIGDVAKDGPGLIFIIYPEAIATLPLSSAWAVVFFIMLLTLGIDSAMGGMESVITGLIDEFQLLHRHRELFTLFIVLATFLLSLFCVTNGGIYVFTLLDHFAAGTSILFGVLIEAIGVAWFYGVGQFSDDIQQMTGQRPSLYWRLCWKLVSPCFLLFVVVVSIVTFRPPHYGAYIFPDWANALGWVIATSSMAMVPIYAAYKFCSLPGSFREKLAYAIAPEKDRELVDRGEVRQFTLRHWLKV
measured property: Ki (nM)
# output: bare number, implied unit nM

Problem: Given the entry COC(=O)[C@H]1[C@@H](c2ccc(I)cc2)C[C@@H]2CC[C@H]1N2C [RTI-55 (CIT), reference compound] , what Ki was observed with human dopamine transporter (Homo sapiens, UniProt Q01959)?
Result: 0.47

----------
assay: Regional brain distribution of radioactivity after intravenous administration (Table 4); format: in vivo, Sprague-Dawley rats; details: cerebellum, iv; rat, i.v., 120 min, mean of three rats; read-out: Cerebellum, mean % injected dose/gram
measured property: tissue uptake at 2 h (%ID/g)
Report the value in %ID/g with no unit label.

Problem: What value of tissue uptake at 2 h has been recorded for this entry: [123I]c1ccc([C@@H]2CN3CCC[C@@H]3c3ccccc32)cc1 [(+)-[^123 I]6]
Result: 0.39

----------
Experiment: Regional brain distribution of radioactivity after intravenous administration (Table 4)
Assay type: in vivo, Sprague-Dawley rats
Conditions: prefrontal cortex, iv; rat, i.v., 30 min, mean of three rats; read-out: Prefrontal Cortex, mean % injected dose/gram
Text: Regional Distribution of Radioactivity in Tissues of Unfasted Male Sprague-Dawley Rats Following Intravenous Administration iodophenyl)pyrrolo[2,1-a]isoquinoline The cerebellum contains a very low density of serotonin transporter sites and is taken as "background" in this analysis of regional uptake.
measured property: tissue uptake at 0.5 h (%ID/g)
Express it in %ID/g; write the number only.

Problem: Any idea what tissue uptake at 0.5 h was measured for [123I]c1ccc([C@@H]2CN3CCC[C@@H]3c3ccccc32)cc1 [(+)-[^123 I]6] ?
Result: 3.72

----------
pKi by entry:
molecular target: serotonin transporter (Rattus norvegicus, UniProt P31652); construct: in rat cortical and striatal homogenates; from tissue; host or cells: rat brain, striatal and cortical homogenates/membranes; assay: Transporter binding site inhibition in rat brain striatal and cortical membranes - serotonin transporter ([3H]citalopram); settings: rat striatal/cortical membranes; vs. [3H]citalopram; read-out: 5-HT Ki
Sequence (P31652 whole entry): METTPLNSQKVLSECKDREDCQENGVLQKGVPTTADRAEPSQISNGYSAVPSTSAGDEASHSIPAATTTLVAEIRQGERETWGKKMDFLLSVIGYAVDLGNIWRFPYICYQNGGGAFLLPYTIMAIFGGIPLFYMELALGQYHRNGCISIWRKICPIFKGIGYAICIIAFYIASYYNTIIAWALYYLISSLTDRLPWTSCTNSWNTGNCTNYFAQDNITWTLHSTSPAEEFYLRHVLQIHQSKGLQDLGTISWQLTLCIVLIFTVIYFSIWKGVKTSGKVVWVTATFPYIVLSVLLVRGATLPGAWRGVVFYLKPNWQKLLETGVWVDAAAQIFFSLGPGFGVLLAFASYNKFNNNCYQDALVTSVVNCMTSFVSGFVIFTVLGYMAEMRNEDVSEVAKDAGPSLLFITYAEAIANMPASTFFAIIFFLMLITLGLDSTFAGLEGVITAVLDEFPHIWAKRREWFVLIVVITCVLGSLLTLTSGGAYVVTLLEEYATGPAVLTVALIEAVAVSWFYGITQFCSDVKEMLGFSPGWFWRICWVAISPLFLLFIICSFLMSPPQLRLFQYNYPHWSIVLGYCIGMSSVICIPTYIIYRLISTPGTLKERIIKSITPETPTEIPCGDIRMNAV
# reply with the number alone; pKi is -log10 of concentration in mol/L

Problem: Look up pKi: Ic1ccc([C@@H]2CN3CCC[C@@H]3c3ccccc32)cc1 (relative stereo)
Result: 8.64

Below: the item to evaluate.
Problem: For the compound shown here, Brc1ccc([C@@H]2CN3CCC[C@@H]3c3ccccc32)cc1 (relative stereo) , give the reported pKi.
Result: 8.29

----------
test: Regional brain distribution of radioactivity after intravenous administration (Table 4); type: in vivo, Sprague-Dawley rats; details: cortex, iv; rat, i.v., 120 min, mean of three rats; read-out: Cortex, mean % injected dose/gram
measured property: tissue uptake at 2 h (%ID/g)
Field format: number, assumed %ID/g, no unit text.

Problem: So what does the record say about tissue uptake at 2 h for [123I]c1ccc([C@@H]2CN3CCC[C@@H]3c3ccccc32)cc1 [(+)-[^123 I]6] ?
Result: 0.74

----------
test: Regional brain distribution of radioactivity after intravenous administration (Table 4); assay type: in vivo, Sprague-Dawley rats; conditions: prefrontal cortex, iv; rat, i.v., 5 min, mean of three rats; read-out: Prefrontal Cortex, mean % injected dose/gram
measured property: tissue uptake at 5 min (%ID/g)
State the answer as a number, implicitly in %ID/g.

Problem: Any idea what tissue uptake at 5 min was measured for [123I]c1ccc([C@@H]2CN3CCC[C@@H]3c3ccccc32)cc1 [(+)-[^123 I]6] ?
Result: 5

----------
Assay: Tissue distribution of radioactivity after intravenous administration (Table 6)
Assay type: in vivo, Sprague Dawley rats
Settings: spleen, rat, i.v., 30 min, mean (range) of 4 rats, read-out: Spleen, mean % injected dose/gram
Text: Distribution of Radioactivity in Tissues of Unfasted Male Sprague Dawley Rats Following Intravenous Administration of (+)-Trans-1,2,3,5,6,10b-hexahydro-6- [4-iodophenyl]-pyrrolo[2,1-a]isoquinoline Mean % Injected Dose/Gram (Range of 4 rats +/SD)
measured property: tissue uptake at 0.5 h (%ID/g)
Give the quantity in %ID/g, number only.

Problem: Which tissue uptake at 0.5 h value belongs to `Ic1ccc([C@@H]2CN3CCC[C@@H]3c3ccccc32)cc1` ?
Result: 1

----------
test: Tissue distribution of radioactivity after intravenous administration (Table 6); format: in vivo, Sprague Dawley rats; details: blood, rat, i.v., 120 min, mean (range) of 4 rats, read-out: Blood, mean % injected dose/gram
measured property: tissue uptake at 2 h (%ID/g)
Express it in %ID/g; write the number only.

Problem: # query: tissue uptake at 2 h of entry `Ic1ccc([C@@H]2CN3CCC[C@@H]3c3ccccc32)cc1`
Result: 0.21

----------
assay: Regional brain uptake with and without preblocking by paroxetine or GBR 12909 (Table 5); type: in vivo, Sprague Dawley rats; details: rat, striatum, iv, 60 min, serotonin blocker paroxetine 5 mg/kg i.v. 15 min prior, read-out: Striatum uptake
measured property: tissue uptake at 1 h (%ID/g)
Give just the numeric value; %ID/g need not be written.

Problem: Endpoint output: tissue uptake at 1 h of [123I]c1ccc([C@@H]2CN3CCC[C@@H]3c3ccccc32)cc1 [95% ee(6S, 10bR)-I-McN] . Value?
Result: 1.39

----------
experiment: Regional brain distribution of radioactivity after intravenous administration (Table 4); format: in vivo, Sprague-Dawley rats; settings: prefrontal cortex, iv; rat, i.v., 60 min, mean of three rats; read-out: Prefrontal Cortex, mean % injected dose/gram
measured property: tissue uptake at 1 h (%ID/g)
Number only, in %ID/g; omit the unit.

Problem: So what's the measured tissue uptake at 1 h for this one? [123I]c1ccc([C@@H]2CN3CCC[C@@H]3c3ccccc32)cc1 [(+)-[^123 I]6]
Result: 3.13

----------
assay: Tissue distribution of radioactivity after intravenous administration (Table 6); assay type: in vivo, Sprague Dawley rats; conditions: brain, rat, i.v., 60 min, mean (range) of 4 rats, read-out: Brain, mean % injected dose/gram
measured property: tissue uptake at 1 h (%ID/g)
Record the value in %ID/g, omitting the unit from your answer.

Problem: Return reported tissue uptake at 1 h; argument: `Ic1ccc([C@@H]2CN3CCC[C@@H]3c3ccccc32)cc1`
Result: 0.7

----------
test: Regional brain distribution of radioactivity after intravenous administration (Table 4); type: in vivo, Sprague-Dawley rats; conditions: cortex, iv; rat, i.v., 60 min, mean of three rats; read-out: Cortex, mean % injected dose/gram
measured property: tissue uptake at 1 h
Units required after the number.

Problem: Data request, read-out tissue uptake at 1 h, for [123I]c1ccc([C@@H]2CN3CCC[C@@H]3c3ccccc32)cc1 [(+)-[^123 I]6]
Result: 0.89 %ID/g

----------
assay: Regional brain distribution of radioactivity after intravenous administration (Table 4); type: in vivo, Sprague-Dawley rats; settings: cerebellum, iv; rat, i.v., 30 min, mean of three rats; read-out: Cerebellum, mean % injected dose/gram
measured property: tissue uptake at 0.5 h (%ID/g)
Answer in %ID/g, number only, no unit symbol.

Problem: Record request: tissue uptake at 0.5 h value, item [123I]c1ccc([C@@H]2CN3CCC[C@@H]3c3ccccc32)cc1 [(+)-[^123 I]6]
Result: 0.78

----------
molecular target: norepinephrine transporter (Rattus norvegicus); construct: in rat cortical and striatal homogenates; test: Transporter binding site inhibition in rat brain striatal and cortical membranes - norepinephrine transporter ([3H]desmethylimipramine); details: vs. [3H]desmethylimipramine, read-out: NE Ki
Sequence (Q63380 1-617): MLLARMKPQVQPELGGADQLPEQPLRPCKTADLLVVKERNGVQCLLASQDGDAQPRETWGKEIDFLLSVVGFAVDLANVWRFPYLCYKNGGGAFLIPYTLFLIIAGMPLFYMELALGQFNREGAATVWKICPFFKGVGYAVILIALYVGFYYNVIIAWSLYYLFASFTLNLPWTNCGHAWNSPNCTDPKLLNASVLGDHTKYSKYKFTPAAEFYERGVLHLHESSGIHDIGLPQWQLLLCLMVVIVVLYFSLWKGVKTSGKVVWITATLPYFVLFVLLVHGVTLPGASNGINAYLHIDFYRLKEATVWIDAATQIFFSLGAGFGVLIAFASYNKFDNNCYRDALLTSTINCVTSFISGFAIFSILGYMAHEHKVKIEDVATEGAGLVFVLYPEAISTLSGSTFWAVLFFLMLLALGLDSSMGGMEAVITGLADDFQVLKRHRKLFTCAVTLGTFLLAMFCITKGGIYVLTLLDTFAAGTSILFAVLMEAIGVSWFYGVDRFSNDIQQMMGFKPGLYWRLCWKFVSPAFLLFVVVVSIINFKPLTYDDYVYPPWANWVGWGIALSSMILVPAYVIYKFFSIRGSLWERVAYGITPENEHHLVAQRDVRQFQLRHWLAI
Overview of recorded pKi for various molecules
In plain terms, pKi is the concentration in mol/L turned into minus its base-10 logarithm.

Problem: Lab note: need pKi with norepinephrine transporter (Rattus norvegicus) for entry Brc1ccc([C@@H]2CN3CCC[C@@H]3c3ccccc32)cc1 (relative stereo) [compound 5] , please look it up.
Result: 5.62

Continuing:
Problem: Give recorded pKi with norepinephrine transporter (Rattus norvegicus) for the following molecule: Ic1ccc([C@@H]2CN3CCC[C@@H]3c3ccccc32)cc1 (relative stereo) [compound 6]
Result: 6.02

----------
test: Regional brain uptake with and without preblocking by paroxetine or GBR 12909 (Table 5); format: in vivo, Sprague Dawley rats; conditions: rat, prefrontal cortex, iv, 60 min, no blocker, read-out: Prefrontal Cortex uptake
measured property: tissue uptake at 1 h
Please append the unit to your numeric answer.

Problem: Report tissue uptake at 1 h for [123I]c1ccc([C@@H]2CN3CCC[C@@H]3c3ccccc32)cc1 [95% ee(6S, 10bR)-I-McN] please.
Result: 2.3 %ID/g

----------
test: Regional brain uptake with and without preblocking by paroxetine or GBR 12909 (Table 5); assay type: in vivo, Sprague Dawley rats; settings: rat, cortex, iv, 60 min, no blocker, read-out: Cortex uptake
measured property: tissue uptake at 1 h (%ID/g)
Give just the number in %ID/g; leave the unit off.

Problem: # query: tissue uptake at 1 h of entry [123I]c1ccc([C@@H]2CN3CCC[C@@H]3c3ccccc32)cc1 [95% ee(6S, 10bR)-I-McN]
Result: 1.88

The measured values listed here are drawn from patent US6162417A.
